# Test system: MFM-223
# ASSAY_EXPLANATION: drug sensitivity score (DSS), CellTox Green (DSS (AUC-based score)); higher = stronger drug effect (viability inhibition or cytotoxicity); extreme values may be limits of the assay
# ASSAY_SETUP: incubation time: 72 h
MEASURED_ATTRIBUTE: drug sensitivity score

The cases that follow already have their drug sensitivity score on record.
[
  {
    "SMILES_CODE": "FC(F)c1nc2ccccc2n1-c1nc(N2CCOCC2)nc(N2CCOCC2)n1",
    "drug sensitivity score": 3.44
  },
  {
    "SMILES_CODE": "C[C@@]1(C(=O)Nc2ccc(F)nc2)CCCN1c1nc(Nc2cc(C3CC3)n[nH]2)c2cccn2n1",
    "drug sensitivity score": 3.84
  },
  {
    "SMILES_CODE": "CS(=O)(=O)OCCCCOS(C)(=O)=O",
    "drug sensitivity score": 0
  },
  {
    "SMILES_CODE": "Nc1nccc(-c2c(-c3ccc(F)cc3)ncn2C2CCCCC2)n1",
    "drug sensitivity score": 0
  },
  {
    "SMILES_CODE": "COc1cccc2c1C(=O)c1c(O)c3c(c(O)c1C2=O)C[C@@](O)(C(C)=O)C[C@@H]3O[C@H]1C[C@H](N)[C@H](O)[C@H](C)O1",
    "drug sensitivity score": 0
  },
  {
    "SMILES_CODE": "CN1CCN(c2ccc3nc(-c4c(N)c5c(F)cccc5[nH]c4=O)[nH]c3c2)CC1",
    "drug sensitivity score": 0
  },
  {
    "SMILES_CODE": "C[C@@H]1C=C2C(=O)O[C@@H]3CC[C@H](C1)[C@]23O",
    "drug sensitivity score": 0
  }
]

Now, please, on to the next compound.
Short answer for `CCS(=O)(=O)c1cccc(-c2cc(C(=O)NC3CCN(C)CC3)c(C)c3[nH]c4ncc(C)cc4c23)c1` : drug sensitivity score was 0

---

# Tested on: HDQ-P1
# ASSAY_EXPLANATION: drug sensitivity score (DSS), CellTox Green (DSS (AUC-based score)); higher = stronger drug effect (viability inhibition or cytotoxicity); extreme values may be limits of the assay
# ASSAY_SETUP: incubation time: 72 h
Classify as follows. Reported drug sensitivity score greater than or equal to 3: fulfilled. Reported drug sensitivity score below: not fulfilled.

Example entries begin here.
[
  {
    "SMILES_CODE": "CN(c1ccccc1CNc1nc(Nc2ccc3c(c2)CC(=O)N3)ncc1C(F)(F)F)S(C)(=O)=O",
    "ASSIGNED_CLASS": "fulfilled"
  },
  {
    "SMILES_CODE": "COC(=O)C[C@](O)(CCCC(C)(C)O)C(=O)O[C@@H]1C(OC)=C[C@]23CCCN2CCc2cc4c(cc2[C@H]13)OCO4",
    "ASSIGNED_CLASS": "fulfilled"
  },
  {
    "SMILES_CODE": "CS(=O)(=O)OCCCCOS(C)(=O)=O",
    "ASSIGNED_CLASS": "not fulfilled"
  },
  {
    "SMILES_CODE": "Cn1cnc2c(F)c(Nc3ccc(Br)cc3F)c(C(=O)NOCCO)cc21",
    "ASSIGNED_CLASS": "not fulfilled"
  },
  {
    "SMILES_CODE": "C[C@@]1(C(=O)Nc2ccc(F)nc2)CCCN1c1nc(Nc2cc(C3CC3)n[nH]2)c2cccn2n1",
    "ASSIGNED_CLASS": "fulfilled"
  }
]

Data request: State whether the measured drug sensitivity score reaches 3, counting equality as reaching it, for `CC(=O)O[C@H]1C(=O)[C@@]2(C)[C@H]([C@H](OC(=O)c3ccccc3)[C@]3(O)C[C@H](OC(=O)[C@H](O)[C@@H](NC(=O)c4ccccc4)c4ccccc4)C(C)=C1C3(C)C)[C@]1(OC(C)=O)CO[C@@H]1C[C@@H]2O`
Data returned: not fulfilled

Data request: State whether the measured drug sensitivity score reaches 3, counting equality as reaching it, for `COC1=C2C[C@@H](C)C[C@H](OC)[C@H](O)[C@@H](C)/C=C(\C)[C@H](OC(N)=O)[C@@H](OC)/C=C\C=C(/C)C(=O)NC(=CC1=O)C2=O`
Data returned: not fulfilled

---

# Tested on: HDQ-P1
# ASSAY_EXPLANATION: normalised viability (% of control), CellTiter-Blue; higher = more viable cells (about 100 = DMSO control)
# ASSAY_SETUP: 30 nM; incubation time: 72 h
Decision: normalised viability beneath 90% gives yes; normalised viability meeting or exceeding 90% gives no.

Example entries begin here.
[
  {
    "COMPOUND": "COC(=O)C[C@](O)(CCCC(C)(C)O)C(=O)O[C@@H]1C(OC)=C[C@]23CCCN2CCc2cc4c(cc2[C@H]13)OCO4 [Omacetaxine mepesuccinate]",
    "ASSIGNED_CLASS": "yes"
  },
  {
    "COMPOUND": "C#Cc1cccc(Nc2ncnc3cc(OC)c(OCCCCCCC(=O)NO)cc23)c1",
    "ASSIGNED_CLASS": "no"
  }
]

Data request: Hello, is normalised viability of the following compound strictly smaller than 90%? `C[C@@]1(C(=O)Nc2ccc(F)nc2)CCCN1c1nc(Nc2cc(C3CC3)n[nH]2)c2cccn2n1`
Data returned: yes

Data request: Hello, is normalised viability of the following compound strictly smaller than 90%? O=P(O)(NCCCl)NCCCl [Ifosfamide mustard]
Data returned: no

Data request: Hello, is normalised viability of the following compound strictly smaller than 90%? `CS(=O)(=O)OCCCCOS(C)(=O)=O`
Data returned: no

Data request: Hello, is normalised viability of the following compound strictly smaller than 90%? `O=c1[nH]c(=O)n([C@H]2C[C@H](O)[C@@H](CO)O2)cc1F`
Data returned: no

Data request: Hello, is normalised viability of the following compound strictly smaller than 90%? `O=C(c1ccc(OCCN2CCCCC2)cc1)c1c(-c2ccc(O)cc2)sc2cc(O)ccc12`
Data returned: no

---

# System: MFM-223
# ASSAY_EXPLANATION: normalised response (% of control), CellTox Green; higher = less cell death (100 = DMSO, 0 = benzethonium chloride kill control)
# ASSAY_SETUP: incubation time: 72 h
MEASURED_ATTRIBUTE: normalised response (%)
Value expressed in %; do not type the unit.

Short answer for CN(c1ccccc1CNc1nc(Nc2ccc3c(c2)CC(=O)N3)ncc1C(F)(F)F)S(C)(=O)=O (10000 nM) : normalised response was 92.2

Short answer for C[C@@H]1CCN(C(=O)CC#N)C[C@@H]1N(C)c1ncnc2[nH]ccc12 [Tofacitinib] (5000 nM) : normalised response was 103

Short answer for CCS(=O)(=O)c1cccc(-c2cc(C(=O)NC3CCN(C)CC3)c(C)c3[nH]c4ncc(C)cc4c23)c1 [TAK-901] (10 nM) : normalised response was 101

Short answer for CS(=O)(=O)CCNCc1ccc(-c2ccc3ncnc(Nc4ccc(OCc5cccc(F)c5)c(Cl)c4)c3c2)o1 [Lapatinib] (10 nM) : normalised response was 105

Short answer for COC1=CC(c2cc3ccccc3[nH]2)=N/C1=C\c1[nH]c(C)cc1C [Obatoclax] (1000 nM) : normalised response was 102

Short answer for CCOc1cc2ncc(C#N)c(Nc3ccc(OCc4ccccn4)c(Cl)c3)c2cc1NC(=O)/C=C/CN(C)C [Neratinib] (1000 nM) : normalised response was 100

Short answer for COC1=CC(c2cc3ccccc3[nH]2)=N/C1=C\c1[nH]c(C)cc1C [Obatoclax] (10000 nM) : normalised response was 96.7

---

Quick list: normalised response per entry.
# System: MDA-MB-468
# ASSAY_EXPLANATION: normalised response (% of control), CellTiter-Glo; higher = more viable cells (100 = DMSO, 0 = benzethonium chloride kill control)
# ASSAY_SETUP: incubation time: 72 h
Value expressed in %; do not type the unit.

The cases that follow already have their normalised response on record.
[
  {
    "COMPOUND": "CC(=O)O[C@H]1C(=O)[C@@]2(C)[C@H]([C@H](OC(=O)c3ccccc3)[C@]3(O)C[C@H](OC(=O)[C@H](O)[C@@H](NC(=O)c4ccccc4)c4ccccc4)C(C)=C1C3(C)C)[C@]1(OC(C)=O)CO[C@@H]1C[C@@H]2O [Paclitaxel] (1 nM)",
    "EXPERIMENTAL_SYSTEM": "MDA-MB-468",
    "normalised response, %": 96.1
  },
  {
    "COMPOUND": "COC1=C2C[C@@H](C)C[C@H](OC)[C@H](O)[C@@H](C)/C=C(\\C)[C@H](OC(N)=O)[C@@H](OC)/C=C\\C=C(/C)C(=O)NC(=CC1=O)C2=O [Geldanamycin] (10 nM)",
    "EXPERIMENTAL_SYSTEM": "MDA-MB-468",
    "normalised response, %": 105
  },
  {
    "COMPOUND": "Cn1c(=O)c(F)c(Nc2ccc(I)cc2F)c2c(=O)n(C[C@@H](O)CO)cnc21 [TAK-733] (100 nM)",
    "EXPERIMENTAL_SYSTEM": "MDA-MB-468",
    "normalised response, %": 79.6
  },
  {
    "COMPOUND": "COc1ccc(C2=N[C@@H](c3ccc(Cl)cc3)[C@@H](c3ccc(Cl)cc3)N2C(=O)N2CCNC(=O)C2)c(OC(C)C)c1 [Nutlin-3] (10 nM)",
    "EXPERIMENTAL_SYSTEM": "MDA-MB-468",
    "normalised response, %": 105
  }
]

Short answer for CN1CCN(c2ccc3nc(-c4c(N)c5c(F)cccc5[nH]c4=O)[nH]c3c2)CC1 [Dovitinib] (10 nM) : normalised response was 97

Short answer for CS(=O)(=O)CCNCc1ccc(-c2ccc3ncnc(Nc4ccc(OCc5cccc(F)c5)c(Cl)c4)c3c2)o1 [Lapatinib] (100 nM) : normalised response was 102
